The entries below are paired with their reported Kd.
# target.or.test.system: T1, human TIGIT ECD with C-terminal polyhistidine tag (human, UniProt Q495A1 22-141)
# T1 construct: in-house or Sino Biological; also called hTIGIT-HIS; human TIGIT-HIS
# T1 sequence: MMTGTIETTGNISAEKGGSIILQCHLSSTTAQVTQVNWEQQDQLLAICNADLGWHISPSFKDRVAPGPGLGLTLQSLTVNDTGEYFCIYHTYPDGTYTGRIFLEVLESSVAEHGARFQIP
# measurement.protocol: SPR (ProteOn), Human TIGIT-His
Provide the reading as a plain figure in pM.

Some binders with known Kd results, for comparison:
>  <binder>
CPA.9.103 (antibody, human IgG4 S228P, kappa, V domains shown, AF647 dye on the antibody in the FACS assay of FIG. 73, fab form is m92; also called CPA.9.103.H4(S241P)) VH: EVQLVETGGGLIQPGGSLRLSCAASGFTVSSNYMSWVRQAPGKGLEWVSVIYSGGSTYYADSVKGRFTISRDNSKNTLYLQMNSLRAEDTAVYYCARGARPNGQYPYWGQGTLVTVSS VL: DIQLTQSPSFLSASVGDRVTITCRASHGIKSLFSWYQQKPGKAPKLLIYAASTLQTGVPSRFSGSASGTEFTLTISSLQPEDFATYYCLQLDSFPTWTFGQGTKVEIKR

>  <value.reported>
6.4

$$$$
>  <binder>
BM29 hIgG4 (antibody, V domains shown, benchmark anti-human TIGIT antibody, human IgG4 with S241P; also called BM29-H4; US2016/0176963A1 Clone 22G2 as hIgG4) VH: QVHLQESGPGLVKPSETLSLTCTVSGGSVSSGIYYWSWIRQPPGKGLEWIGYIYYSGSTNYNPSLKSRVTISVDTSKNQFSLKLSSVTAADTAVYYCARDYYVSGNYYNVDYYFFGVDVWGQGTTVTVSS VL: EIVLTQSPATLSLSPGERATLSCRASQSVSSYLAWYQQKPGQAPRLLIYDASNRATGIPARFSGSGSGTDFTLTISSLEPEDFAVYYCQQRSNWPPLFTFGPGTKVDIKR

>  <value.reported>
11

$$$$

*Q* Name the reported Kd value associated with the binder BM26 hIgG4 (antibody, V domains shown, benchmark anti-human TIGIT antibody, human IgG4 with S241P; also called BM26-H4; WO2016/028656A1 Clone 3106 as hIgG4) VH: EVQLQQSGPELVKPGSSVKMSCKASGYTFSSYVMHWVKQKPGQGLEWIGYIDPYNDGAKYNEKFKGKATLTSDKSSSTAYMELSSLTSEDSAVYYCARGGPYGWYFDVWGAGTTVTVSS VL: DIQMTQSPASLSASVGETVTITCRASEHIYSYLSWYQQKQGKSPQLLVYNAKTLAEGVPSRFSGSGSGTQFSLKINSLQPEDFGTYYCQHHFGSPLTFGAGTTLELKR
*A* 4

The values you see were collected from patent US20240075137A1.
